Test system: MRSA ATCC 33591
Test: MIC broth microdilution
Assay type: cell-based, methicillin-resistant Staphylococcus aureus
Details: Staphylococcus aureus, ATCC33591|MRSA
Observed property: MIC (µM)
Numbers only, in µM.

Here is how some compounds turned out for MIC.
>>> meas_value("CCCCCCCCCCCCOC(=O)c1cc(O)c(O)c(O)c1 [Dodecyl gallate, dodecyl gallate]")
200
>>> meas_value("CCCCCCCCOC(=O)c1cc(O)c(O)c(O)c1 [Octyl gallate, octyl gallate]")
100

Summary: O=C(O)c1cc(O)c(O)c(OC(=O)c2cc(O)c(O)c(O)c2)c1 , MRSA ATCC 33591, MIC = 200
